# Measured On: Protease (Human immunodeficiency virus 1, UniProt Q9YQ12)
# Sequence (Q9YQ12 whole entry): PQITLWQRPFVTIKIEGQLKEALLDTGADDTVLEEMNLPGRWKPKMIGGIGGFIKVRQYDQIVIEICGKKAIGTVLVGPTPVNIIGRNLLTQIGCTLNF
Measurement Name: Ki (pM)
One number for each entry, in pM.

Enquiry: Provide the documented Ki with Protease (Human immunodeficiency virus 1, UniProt Q9YQ12) as the system for CC(C)CN(C[C@@H](O)[C@H](Cc1ccccc1)NC(=O)O[C@H]1CO[C@H]2OCC[C@H]21)S(=O)(=O)c1ccc(B(O)O)cc1
Return: 0.5

---

Give measured pEC50 for each item. Keep answers brief.
# Measured On: Envelope glycoprotein gp160 (Human immunodeficiency virus 1)
# Sequence (Q6QLK5 whole entry): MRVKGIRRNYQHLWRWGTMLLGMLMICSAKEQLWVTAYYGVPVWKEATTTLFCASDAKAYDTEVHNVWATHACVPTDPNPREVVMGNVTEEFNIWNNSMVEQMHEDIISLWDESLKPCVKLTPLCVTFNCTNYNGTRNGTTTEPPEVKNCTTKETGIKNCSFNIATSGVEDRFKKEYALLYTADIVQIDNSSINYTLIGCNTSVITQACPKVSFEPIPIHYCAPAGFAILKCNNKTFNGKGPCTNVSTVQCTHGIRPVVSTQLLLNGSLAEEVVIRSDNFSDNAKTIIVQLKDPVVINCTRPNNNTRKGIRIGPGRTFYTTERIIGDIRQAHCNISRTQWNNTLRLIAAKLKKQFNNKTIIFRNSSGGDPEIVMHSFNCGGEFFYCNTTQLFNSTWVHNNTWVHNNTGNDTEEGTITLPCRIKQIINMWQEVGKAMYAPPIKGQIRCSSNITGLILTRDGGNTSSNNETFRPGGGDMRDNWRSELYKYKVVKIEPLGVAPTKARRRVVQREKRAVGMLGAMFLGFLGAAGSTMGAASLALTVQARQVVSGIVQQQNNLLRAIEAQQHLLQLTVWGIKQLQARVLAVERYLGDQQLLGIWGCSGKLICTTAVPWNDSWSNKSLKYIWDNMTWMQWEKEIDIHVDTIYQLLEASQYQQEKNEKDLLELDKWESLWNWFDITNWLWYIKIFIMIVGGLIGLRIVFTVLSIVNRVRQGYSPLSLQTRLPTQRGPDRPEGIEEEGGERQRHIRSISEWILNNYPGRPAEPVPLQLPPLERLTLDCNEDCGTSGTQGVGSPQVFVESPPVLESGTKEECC
# Assay Notes: Inhibition of HIV1 gp120 assessed as increase in anti-DNP binding to immobilized HIV-1 gp120 incubated for 1 hr by ELISA
Answers are plain numbers, as −log10 of the molar value.

>  <Cpd Smiles>
COc1ccc(-c2ccc(CNC(=O)COCCOCCOCCOCCn3cc(COCCOCCOCCOCCNc4ccc([N+](=O)[O-])cc4[N+](=O)[O-])nn3)o2)c2[nH]cc(C(=O)C(=O)N3CCN(C(=O)c4ccccc4)CC3)c12

>  <Measurement Name>
pEC50

>  <Observed Value>
5.95

$$$$

# evaluate next
Enquiry: Return reported pEC50; argument: C[C@@H]1CN(C(=O)c2ccccc2)CCN1C(=O)C(=O)c1c[nH]c2nccc(OCCOCCOCCOCCOCCOCCn3cc(COCCOCCOCCOCCNc4ccc([N+](=O)[O-])cc4[N+](=O)[O-])nn3)c12
Return: 4.42

---

# Assay Notes: Inhibition of HIV1 reverse transcriptase p66/p51 K103N/Y181C mutant infected in human MT2 cells assessed as reduction in viral infection incubated for 5 days
Measurement Name: EC50 (nM)
Numbers only, in nM.

Enquiry: What measured EC50 goes with Cc1c(Oc2ccccc2OCCn2ccc(=O)[nH]c2=O)cc(Cl)c2ccc(C#N)cc12 ?
Return: 280

---

Can you tell me IC50 for the items I'm about to list?
# Measured On: UniProt Q6QLK5
# Assay Notes: Inhibition of HIV1 JRFL gp120 assessed as reduction in CD4/gp 120 complex formation incubated for 1 hr by ELISA
One number for each entry, in µM.

I have 3 compounds here; please give me IC50 for each one.
1. COc1ccc(-c2ccco2)c2[nH]cc(C(=O)C(=O)N3CCN(C(=O)c4ccccc4)CC3)c12
2. C[C@@H]1CN(C(=O)c2ccccc2)CCN1C(=O)C(=O)c1c[nH]c2nccc(OCCOCCOCCOCCOCCOCCn3cc(COCCOCCOCCOCCNc4ccc([N+](=O)[O-])cc4[N+](=O)[O-])nn3)c12
3. COc1ccnc2[nH]cc(C(=O)C(=O)N3CCN(C(=O)c4ccccc4)C[C@H]3C)c12

Return:
1. 0.13
2. 19.9
3. 8.7

Enquiry: For the record COc1ccc(-c2ccc(CNC(=O)COCCOCCOCCOCCn3cc(COCCOCCOCCOCCNc4ccc([N+](=O)[O-])cc4[N+](=O)[O-])nn3)o2)c2[nH]cc(C(=O)C(=O)N3CCN(C(=O)c4ccccc4)CC3)c12 , what value of IC50 is listed for UniProt Q6QLK5?
Return: 0.33

---

# Assay Notes: Inhibition of Acinetobacter baumannii N-terminal ADC-7 cephalosporinase expressed in Escherichia coli BL21(DE3) incubated for 5 mins by UV-vis spectrophotometric method
Measurement Name: Ki

Enquiry: Item O=C(Cc1cccs1)N[C@@H](Cn1cc(C(=O)O)nn1)B(O)O has what recorded Ki?
Return: 0.044 µM

Hello, the source for this data is ChEMBL document CHEMBL4321787, in case you need it.
